test system: HT; test: cells; parameters: species or system human tumour lines, HEK293T, mouse MEF; Cell viability after 72 h, CellTiter-Glo luminescent assay; conditions: Homo sapiens, HT, 72 h; read-out: HOIPIN-1 (IC50)
parameter.measured: IC50 (µM)
Report the figure in µM without appending any unit label.

# compound COc1ccccc1C(=O)/C=C/c1ccccc1C(=O)O [HOIPIN-1] ; its IC50 = 48.2

----------
test system: HEK293T; assay: cells; set-up: species or system human tumour lines, mouse MEF; Cell viability after 72 h, CellTiter-Glo luminescent assay; details: Homo sapiens, HEK-293T, 72 h; read-out: HOIPIN-8 (IC50)
parameter.measured: pIC50
FYI, pIC50 means -log10 of a concentration in mol per litre.

Recorded pIC50 (compound Cn1cc(-c2ccc(C(=O)O)c(/C=C/C(=O)c3c(F)cc(-c4cn[nH]c4)cc3F)c2)cn1 [HOIPIN-8] ): 4.15
